- assay_remarks: Half life in Sprague-Dawley rat blood at 1 mg/kg, iv measured up to 24 hrs by HPLC-MS/MS analysis
- Type: ADME, organism-based
measured_endpoint: half-life
Kindly format the answer as number then unit.

Summary for this compound, Cn1ncc2c(-c3ccc(F)cc3)cc(NNC(=O)Nc3cc(Cl)nc(Cl)c3)nc21 : half-life is 6 h

----------
Observed pKd, system UniProt O95136.
Sequence (O95136 whole entry): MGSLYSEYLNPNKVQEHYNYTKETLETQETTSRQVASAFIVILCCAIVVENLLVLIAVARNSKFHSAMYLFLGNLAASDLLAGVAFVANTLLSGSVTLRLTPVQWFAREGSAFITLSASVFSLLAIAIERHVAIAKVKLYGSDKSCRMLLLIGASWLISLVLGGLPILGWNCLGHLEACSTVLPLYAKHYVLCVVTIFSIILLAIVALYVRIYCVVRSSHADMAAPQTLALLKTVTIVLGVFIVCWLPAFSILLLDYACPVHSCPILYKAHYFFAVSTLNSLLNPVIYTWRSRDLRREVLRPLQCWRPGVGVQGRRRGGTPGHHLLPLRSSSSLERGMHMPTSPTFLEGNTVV
Please report pKd as the negative decimal logarithm of the molar concentration, giving only the number.

Summary for this molecule, Cn1ncc2c(-c3ccc(F)cc3)cc(NNC(=O)Nc3cc(Cl)nc(OCCF)c3)nc21 : pKd is 5.55

Summary for this molecule, CC(C)c1cc(NNC(=O)Nc2cc(Cl)nc(Cl)c2)nc2c1cnn2C : pKd is 6.11

Summary for this molecule, Cn1ncc2c(-c3ccccc3)cc(NNC(=O)Nc3cc(Cl)nc(Cl)c3)nc21 : pKd is 5.99

Summary for this molecule, CC(C)c1cc(NNC(=O)Nc2cc(Cl)nc(Cl)c2)nc2c1c(C(F)(F)F)nn2C : pKd is 5.90

Summary for this molecule, CCN(CC)c1cc(NC(=O)NNc2cc(-c3ccc(F)cc3)c3cnn(C)c3n2)cc(Cl)n1 : pKd is 5.50

Summary for this molecule, COc1ccc(-c2cc(NNC(=O)Nc3cc(Br)nc(Br)c3)nc3c2cnn3C)cc1 : pKd is 5.20

Summary for this molecule, Cc1nn(C)c2nc(NNC(=O)Nc3cc(Cl)nc(Cl)c3)cc(-c3ccc(F)cc3)c12 : pKd is 6.01

----------
- assay_remarks: Initial drug concentration in Sprague-Dawley rat plasma at 1 mg/kg, iv measured up to 24 hrs by HPLC-MS/MS analysis
- Assay type: ADME, organism-based
measured_endpoint: C0 at 24 h (ng/mL)
Your answer should be a plain number; it is taken to be in ng/mL.

Summary for this compound, Cn1ncc2c(-c3ccc(F)cc3)cc(NNC(=O)Nc3cc(Cl)nc(Cl)c3)nc21 : C0 at 24 h is 4040

----------
- assay_remarks: AUC (0 to t) in Sprague-Dawley rat plasma at 1 mg/kg, iv measured up to 24 hrs by HPLC-MS/MS analysis
- Assay type: ADME, organism-based
- Set-up: dose 1 mg/kg, time < 24 hrs, route iv
measured_endpoint: AUC(0-t) at 24 h (ng·h/mL)
Your answer should be a plain number; it is taken to be in ng·h/mL.

Summary for this compound, Cn1ncc2c(-c3ccc(F)cc3)cc(NNC(=O)Nc3cc(Cl)nc(Cl)c3)nc21 : AUC(0-t) at 24 h is 10100

----------
- assay_remarks: AUC (0 to infinity) in Sprague-Dawley rat plasma at 1 mg/kg, iv measured up to 24 hrs by HPLC-MS/MS analysis
- Type: ADME, organism-based
- Parameters: dose 1 mg/kg, time < 24 hrs, route iv
measured_endpoint: AUC(0-inf) (ng·h/mL)
Your answer should be a plain number; it is taken to be in ng·h/mL.

Summary for this molecule, Cn1ncc2c(-c3ccc(F)cc3)cc(NNC(=O)Nc3cc(Cl)nc(Cl)c3)nc21 : AUC(0-inf) is 11700

----------
- System: SW620/5-FU
- assay_remarks: Antiproliferative activity against human SW620/5-FU cells assessed as reduction in cell viability incubated for 48 hrs by MTT assay
- Format: functional, cell-based
pEC50: −log10 of the molar value.
measured_endpoint: pEC50

Summary for this compound, O=c1[nH]cc(F)c(=O)[nH]1 [FLUOROURACIL] : pEC50 is < 3.00
